# measured on: T1, human Dll1 (human, UniProt O00548 18-723)
# T1 construct: whole, on cells
# T1 sequence (looked up): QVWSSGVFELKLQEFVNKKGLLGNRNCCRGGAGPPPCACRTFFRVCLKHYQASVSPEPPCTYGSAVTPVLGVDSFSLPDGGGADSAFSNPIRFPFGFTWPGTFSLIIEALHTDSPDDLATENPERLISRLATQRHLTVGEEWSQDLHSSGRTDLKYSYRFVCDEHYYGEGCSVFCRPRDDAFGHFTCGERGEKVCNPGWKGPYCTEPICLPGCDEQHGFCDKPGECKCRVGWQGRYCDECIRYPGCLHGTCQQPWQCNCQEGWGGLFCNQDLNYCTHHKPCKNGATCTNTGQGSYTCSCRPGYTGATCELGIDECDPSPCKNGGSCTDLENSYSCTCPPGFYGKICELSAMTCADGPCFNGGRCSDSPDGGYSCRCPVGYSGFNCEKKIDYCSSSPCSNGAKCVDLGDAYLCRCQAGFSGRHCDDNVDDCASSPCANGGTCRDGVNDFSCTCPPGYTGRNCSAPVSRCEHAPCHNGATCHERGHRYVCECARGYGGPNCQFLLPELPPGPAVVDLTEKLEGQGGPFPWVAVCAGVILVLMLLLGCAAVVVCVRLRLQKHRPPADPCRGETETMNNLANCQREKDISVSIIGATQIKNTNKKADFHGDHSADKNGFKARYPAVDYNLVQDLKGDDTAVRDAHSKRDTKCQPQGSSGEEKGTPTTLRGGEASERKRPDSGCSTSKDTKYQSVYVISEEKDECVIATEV
# measurement description: FACS, 15 µg/ml, 293T cells with human Dll1
readout kind: Dll1/293T X Geo mean

Challenge: Find the measured Dll1/293T X Geo mean of 9G8 (antibody, IgG4, V domains shown, Fully human; used for IgG4 rows and where no isotype is printed; also called 9G8 IgG4) VH: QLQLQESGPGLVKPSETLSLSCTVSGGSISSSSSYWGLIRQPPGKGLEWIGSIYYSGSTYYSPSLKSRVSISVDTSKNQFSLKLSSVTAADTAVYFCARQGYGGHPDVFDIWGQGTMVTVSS VL: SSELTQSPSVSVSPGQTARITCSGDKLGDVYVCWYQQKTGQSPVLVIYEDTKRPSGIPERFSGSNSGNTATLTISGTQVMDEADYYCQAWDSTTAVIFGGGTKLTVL and report it.
Response given: 32.3

Challenge: Please supply the value of reported Dll1/293T X Geo mean for the item 4B3 (antibody, IgG4, V domains shown, Fully human; also used where no isotype is printed) VH: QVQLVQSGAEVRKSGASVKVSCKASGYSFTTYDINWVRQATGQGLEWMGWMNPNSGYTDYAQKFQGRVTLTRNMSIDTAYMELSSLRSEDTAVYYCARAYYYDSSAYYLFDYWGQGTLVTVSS VL: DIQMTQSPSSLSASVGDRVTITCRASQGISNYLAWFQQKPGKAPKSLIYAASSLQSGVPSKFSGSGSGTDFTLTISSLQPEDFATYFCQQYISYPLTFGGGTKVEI
Response given: 30.6

Challenge: Provide one value: measured Dll1/293T X Geo mean of 17F3 (antibody, IgG2, V domains shown, Fully human; also used where no isotype is printed) VH: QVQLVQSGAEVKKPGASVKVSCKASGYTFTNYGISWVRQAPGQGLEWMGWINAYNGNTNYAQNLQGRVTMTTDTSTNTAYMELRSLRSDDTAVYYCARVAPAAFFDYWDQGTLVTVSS VL: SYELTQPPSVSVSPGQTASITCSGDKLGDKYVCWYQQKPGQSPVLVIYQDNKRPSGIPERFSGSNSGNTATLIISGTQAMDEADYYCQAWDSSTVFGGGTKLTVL
Response given: 47
